molecular target: wild type human RORγt LBD (Homo sapiens, UniProt P51449); construct: expressed in transfected cells; host or cells: HEK293T; test: RORγt (LBD) Reporter Assay (GAL4-luciferase, HEK293T cells); assay type: cell-based; settings: 6 µM compound concentration; HEK293T cells; 6 µM
Property measured: RORγt (LBD) Reporter Assay, % inhibition @ 6 µM (%)
Numbers only, in %.

Consider the following illustrative entries.
{"Molecule": "Cn1cncc1C(O)(c1ccc(C(F)(F)F)nc1)c1ccc2nc(N3CC(O)C3)c(Cc3ccc(-n4cccn4)cc3)c(Cl)c2c1 (single isomer, unassigned) [Example 134c]", "Target under test": "wild type human RORγt LBD (Homo sapiens, UniProt P51449)", "Quantitative result": 96}
{"Molecule": "Cc1ccc(C(O)(c2ccc3nc(N4CC(F)(F)C4)c(Cc4ccc(C(F)(F)F)cc4)c(Cl)c3c2)c2cnnn2C)c(C)n1 (single isomer, unassigned) [Example 148c]", "Target under test": "wild type human RORγt LBD (Homo sapiens, UniProt P51449)", "Quantitative result": 98}
{"Molecule": "COc1nc2ccc(C(c3ccc(C)nc3C)(c3cnnn3C)N(C)C)cc2c(Cl)c1Cc1ccc(C(F)(F)F)cc1 (single isomer, unassigned) [Example 122c]", "Target under test": "wild type human RORγt LBD (Homo sapiens, UniProt P51449)", "Quantitative result": 99}
{"Molecule": "COc1nc2ccc(C(O)(c3ncccn3)c3cncn3C)cc2c(Cl)c1Cc1ccc(-n2cccn2)cc1 (single isomer, unassigned) [Example 131c]", "Target under test": "wild type human RORγt LBD (Homo sapiens, UniProt P51449)", "Quantitative result": 100}

Here Cc1ccc(C(O)(c2ccc3nc(Cl)c(Cc4ccc(C(F)(F)F)cc4)c(NC4CC4)c3c2)c2cnnn2C)c(C)n1 (single isomer, unassigned) [Example 144c] was tested on wild type human RORγt LBD (Homo sapiens, UniProt P51449), and its RORγt (LBD) Reporter Assay, % inhibition @ 6 µM came to 99

====

target: wild type human RORγt LBD (Homo sapiens, UniProt P51449); construct: expressed in transfected cells; host or cells: HEK293T; experiment: RORγt (LBD) Reporter Assay (GAL4-luciferase, HEK293T cells); type: cell-based; conditions: 6 µM compound concentration; 6 µM
For each record, write down the corresponding RORγt (LBD) Reporter Assay, % inhibition @ 6 µM.
Numbers only, in %.

{"Compound": "COc1nc2ccc(C(O)(c3cncn3C)C3CCOCC3)cc2c(Cl)c1Cc1ccc(-n2cccn2)cc1 (single isomer, unassigned)", "Units symbol": "%", "Quantitative result": 98}
{"Compound": "COc1nc2ccc(C(O)(c3ccc(C)nc3C)c3cnnn3C)cc2c(Cl)c1Cc1ccc(N(C)C)cc1 (single isomer, unassigned) [Example 24c]", "Units symbol": "%", "Quantitative result": 97}
{"Compound": "COc1nc2ccc(C(O)(c3ccc(C)nc3C)c3cnnn3C)cc2c(C#N)c1Cc1ccc(C(F)(F)F)nc1 (single isomer, unassigned) [Example 41c]", "Units symbol": "%", "Quantitative result": 99}

// input: 7 compounds below; output: RORγt (LBD) Reporter Assay, % inhibition @ 6 µM for each
1. COc1nc2ccc(C(O)(c3ccccc3)C3CCN(C(C)=O)CC3)cc2c(Cl)c1Cc1ccc(-n2cncn2)cc1 (single isomer, unassigned) [Example 18c]
2. COc1nc2ccc(C(O)(c3ccccn3)c3cncn3C)cc2c(Cl)c1Cc1ccc(-n2cccn2)cc1 (single isomer, unassigned) [Example 64c]
3. Cc1cc(C(O)(c2ccnc(C(F)(F)F)c2)c2cncn2C)cc2c(C#N)c(Cc3ccc(-n4cccn4)cc3)c(C#N)nc12 (single isomer, unassigned) [Example 83c]
4. COc1nc2ccc(C(O)(c3cc(C)nc(C)c3)c3cnnn3C)cc2c(Cl)c1Cc1ccc(C(F)(F)F)cc1 (single isomer, unassigned) [Example 84c]
5. COc1nc2ccc(C(O)(c3ccc(C)nc3C)C3CN(C(C)=O)C3)cc2c(Cl)c1Cc1ccc(C(F)(F)F)cc1 (single isomer, unassigned) [Example 87c]
6. COc1nc2ccc(C(O)(c3sc(C)nc3C)c3cnnn3C)cc2cc1Cc1ccc(C(F)(F)F)cc1 (single isomer, unassigned) [Example 92c]
7. COc1nc2ccc(C(O)(c3ccc(C)nc3C)c3cnnn3C)cc2c(Cl)c1Cc1ccc(C)cc1 (single isomer, unassigned) [Example 20c]

1. 91
2. 107
3. 100
4. 100
5. 97
6. 96
7. 93

// input: 2 compounds below; output: RORγt (LBD) Reporter Assay, % inhibition @ 6 µM for each
1. CC(=O)N1CCC(C(O)(c2ccccc2)c2ccc3nc(Cl)c(Cc4cncnc4)c(OC(F)F)c3c2)CC1 (single isomer, unassigned) [Example 73c]
2. COc1nc2ccc(C(O)(c3ccccc3)C3CCN(C(C)=O)CC3)cc2c(Cl)c1Cc1ccc(-n2ccnc2)cc1 (stereo not drawn) [Example 16b]

1: 21; 2: 96

====

Target: wild type human RORγt LBD (Homo sapiens, UniProt P51449)
Construct: expressed in transfected cells; host or cells: HEK293T
Sequence (P51449 258-518): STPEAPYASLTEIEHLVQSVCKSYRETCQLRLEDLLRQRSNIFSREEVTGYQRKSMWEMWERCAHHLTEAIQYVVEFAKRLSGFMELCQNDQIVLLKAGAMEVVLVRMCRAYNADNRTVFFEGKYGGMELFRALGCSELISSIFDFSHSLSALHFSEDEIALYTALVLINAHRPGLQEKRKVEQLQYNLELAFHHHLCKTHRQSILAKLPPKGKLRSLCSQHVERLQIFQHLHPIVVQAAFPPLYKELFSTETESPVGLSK
Experiment: RORγt (LBD) Reporter Assay (GAL4-luciferase, HEK293T cells)
Format: cell-based
Settings: HEK293T cells; value after the comma with ∼, > or < could not be included in the average
For each record, write down the corresponding pIC50.
Numbers only, as −log10 of the molar value.

{"Compound": "Cn1cncc1C(O)(c1ccc2nc(C(F)(F)F)c(Cc3ccccc3)c(C#N)c2c1)c1ccccn1 (racemic) [Example 99a]", "pIC50": 7.01}

Kindly note the recorded pIC50 for COc1nc2ccc(C(O)(c3sc(C)nc3C)c3cnnn3C)cc2c(Cl)c1Cc1ccc(-n2cccn2)cc1 (single isomer, unassigned) [Example 21b] , which is 6.89

====

Target: wild type human RORγt LBD (Homo sapiens)
Construct: expressed in transfected cells; host or cells: HEK293T
Sequence (P51449 258-518): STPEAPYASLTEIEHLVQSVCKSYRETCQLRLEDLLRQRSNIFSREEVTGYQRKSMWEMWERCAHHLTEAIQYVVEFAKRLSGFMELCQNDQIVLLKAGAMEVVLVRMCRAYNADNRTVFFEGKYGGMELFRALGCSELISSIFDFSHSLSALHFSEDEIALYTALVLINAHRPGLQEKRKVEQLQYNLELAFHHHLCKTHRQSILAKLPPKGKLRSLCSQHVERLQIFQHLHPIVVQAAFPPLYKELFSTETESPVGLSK
Assay: RORγt (LBD) Reporter Assay (GAL4-luciferase, HEK293T cells)
Format: cell-based
Settings: HEK-293T, read-out: RORγt (LBD) Reporter Assay, % inhibition @ 6 µM, 6 µM compound concentration
For each record, write down the corresponding inhibition at 6 µM.
Answers are plain numbers, in %.

{"Molecule": "COc1nc2ccc(C(O)(c3ccc(C)nc3C)c3cnnn3C)cc2c(Cl)c1Cc1ccc(C(F)(F)F)nc1 (stereo not shown) [Example 40a]", "Quantitative result": 98}

// input: 7 molecules below; output: inhibition at 6 µM for each
1. COc1nc2ccc(C(O)(c3cnnn3C)c3cnc(C)n3C)cc2c(Cl)c1Cc1ccc(C(F)(F)F)nc1 (single isomer, unassigned) [Example 43b]
2. COc1nc2ccc(C(O)(c3cc(C)nc(C)c3)c3cnnn3C)cc2c(Cl)c1Cc1ccc(C(F)(F)F)cc1 (single isomer, unassigned) [Example 84b]
3. COc1nc2ccc(C(O)(c3cnnn3C)c3cnc(C)n3C)cc2c(C#N)c1Cc1ccc(C(F)(F)F)nc1 (stereo not shown) [Example 44a]
4. COc1nc2ccc(C(O)(c3ccccc3)C3CCN(C(C)=O)CC3)cc2c(Cl)c1Cc1ccc(-n2cncn2)cc1 (stereo not shown) [Example 18a]
5. CCc1nc2ccc(C(O)(c3cnnn3C)c3cnc(C)n3C)cc2c(Cl)c1Cc1ccc(C(F)(F)F)cc1 (single isomer, unassigned) [Example 25b]
6. COc1c(Cc2ccccc2)c(C(F)(F)F)nc2ccc(C(O)(c3ccc(Cl)cc3)c3cncn3C)cc12 (single isomer, unassigned) [Example 101c]
7. COc1nc2ccc(C(O)(c3ccc(C)nc3C)c3cnnn3C)cc2c(Cl)c1Cc1ccc(-n2cccn2)cc1 (single isomer, unassigned) [Example 17b]

98
103
97
99
100
89
97

// input: 6 molecules below; output: inhibition at 6 µM for each
1. Cn1cncc1C(O)(c1ccc(C(F)(F)F)nc1)c1ccc2nc(Cl)c(Cc3ccccc3)c(Cl)c2c1 (stereo not shown)
2. CC(=O)N1CCC(C(O)(c2ccc(C(F)(F)F)nc2)c2cc(C)c3nc(C#N)c(Cc4ccc(-n5cccn5)cc4)c(C#N)c3c2)CC1 (single isomer, unassigned) [Example 79b]
3. Cn1cncc1C(O)(c1ccc(Cl)cc1)c1ccc2nc(C(F)(F)F)c(Cc3ccccc3)c(O)c2c1 (stereo not shown)
4. COc1nc2ccc(C(O)(c3cnnn3C)C3CCN(C(C)=O)CC3)cc2c(Cl)c1Cc1ccc(C(F)(F)F)cc1 (racemic) [Example 74a]
5. COc1nc2ccc(C(O)(c3cnnn3C)c3cnc(C)n3C)cc2c(C#N)c1Cc1ccc(C(F)(F)F)nc1 (single isomer, unassigned) [Example 44b]
6. Cn1cncc1C(O)(c1ccc(C#N)cc1)c1ccc2nc(C(F)(F)F)c(Cc3ccccc3)c(C#N)c2c1 (stereo not shown)

80
92
94
98
99
82

// input: 2 molecules below; output: inhibition at 6 µM for each
1. CC(=O)N1CCC(C(O)(c2ccccc2)c2ccc3nc(Cl)c(Cc4cncnc4)c(OC(F)F)c3c2)CC1 (racemic) [Example 73a]
2. Cn1cncc1C(O)(c1ccc(Cl)cc1)c1ccc2nc(C(F)(F)F)c(Cc3ccccc3)c(C#N)c2c1 (stereo not shown)

[45, 81]
